// reported melting point per item

QUERY: Would you kindly share the measured melting point for CCOC(=O)/C=C/c1ccc(OCCN2CCCC2=O)cc1OCc1ccccc1 ?
RESULT: 94 to 97 °C

QUERY: Fill in the blank: the reported melting point of COc1ccc(-n2nnc(-c3ccc(F)cc3Cl)c2N)cc1 is ____.
RESULT: 175 to 177 °C

---

# maps each entry to its melting point

Recorded results for 4 compounds are shown here.
QUERY: Any idea what its melting point is? The compound is Cc1nnc(N2C(=O)C(O)=C(C(=O)c3ccc(C(C)C)cc3)C2c2ccc(OC(F)(F)F)cc2)s1 (stereo not given)
RESULT: 260 °C

QUERY: Could you share which melting point value was measured for Cc1cc([N+](=O)[O-])c2[nH]cc(CO)c(=O)c2c1 ?
RESULT: > 240 °C

QUERY: # lookup: melting point of C=Cc1cc(CNC(=O)OC(C)(C)C)cc(Cl)c1NS(C)(=O)=O
RESULT: 133 to 135 °C

QUERY: Form field: reported melting point of CCOC(=O)c1c2n(c3ccc(F)cc3c1=O)CCS2
RESULT: 225 to 226 °C

Query compound follows.
QUERY: Recorded melting point for CC1(C)CCc2c(-c3ccoc3)nc3sc4c(NCc5cccnc5)ncnc4c3c2C1 , please?
RESULT: 247 to 248 °C
